tested on: KM12 colon; experiment: NCI-60 one-dose screen, 48 h; details: 10 µM unless noted
Compounds without any hit were thinned out: in the full panel of roughly 83,000, 20% have a hit. Calls of active or inactive are those of the source. Rule for the calls: active = growth percent below 10; inactive = the rest.
Can you answer with just one of these options? active, inactive

Solved cases (3 shown):
Cc1cc2c(c(C)c1Cl)C(=O)/C(=C/c1ccco1)O2 | inactive
CN1C(=O)N(C)C2C1NN=c1s/c(=C\c3ccc(Cl)cc3Cl)c(=O)n12 (centres undefined) | active
COc1ccc(Nc2nc(N/N=C/c3ccc(O)cc3)nc(Nc3ccc([N+](=O)[O-])cc3)n2)cc1 | inactive

Dear colleague, could you share the recorded outcome for O=C(/C=C/c1ccc(C(F)(F)F)cc1)c1ccc(Nc2nc(NCCO)nc(Nc3ccc(Cl)cc3)n2)cc1 when you have a moment?
active

---

tested on: SR leukemia; experiment: NCI-60 one-dose screen, 48 h (100 = growth as untreated, 0 = no growth, -100 = all killed); conditions: 10 µM unless noted
Compounds without any hit were thinned out: in the full panel of roughly 83,000, 20% have a hit.
quantity-measured: growth (%)
Provide only the numeric value, understood in %.

Check out these entries, answers already filled in.
CCOC(=O)C(CC(=O)O)=C(C(=O)OCC)C(=O)OCC | 95.8
O=C(Nc1ccsc1C(=O)NC1CCCCC1)c1ccc(F)cc1 | 79.4
FC(F)(F)c1cccc(Nc2nc3ccccc3nc2Nc2cccc(C(F)(F)F)c2)c1 | -29.4
O=C(Cc1ccccc1)NC(c1ccc(Cl)cc1)c1c(O)ccc2ccccc12 (stereo unspecified) | 4.83
COc1ccc(/C=C2\CCC/C(=C\c3ccc(OC)c(OC)c3)C2=O)cc1OC | 14.3

Which growth value belongs to Nc1ncnc(N)c1NC(=O)c1ccc(OCc2ccccc2)cc1 ?
94

Do the same for O=C(Nc1ccc(-c2nc3cc4ccccc4cc3[nH]2)cc1)c1cccc(Br)c1 please
76.4

Do the same for COc1ccc(Cn2c(Br)c3c(c2-c2cc(OC)c(OC)c(OC)c2)CCc2sc(NC(=O)c4ccc(OC)cc4)nc2-3)cc1 please
76.2

Do the same for CC(C)(C)c1ccc(C2CC(=O)C3=C(C2)Nc2ccccc2N(C(=O)c2ccccc2Cl)C3c2ccc(F)cc2)cc1 (stereo unspecified) please
9.77

Do the same for CCCC(=O)CC(C)=O.CCCC(=O)CC(C)=O.[Cu] please
85.6

---

// reported growth for each item listed
test system: TK-10 renal; test: NCI-60 one-dose screen, 48 h (100 = growth as untreated, 0 = no growth, -100 = all killed); details: 10 µM unless noted
The panel holds about 83,000 compounds, 20% with a hit somewhere; the sample as a whole holds those more often.
Provide only the numeric value, understood in %.

COc1ccc(C)c2sc(N(Cc3cccnc3)C(=O)c3ccc(C#N)cc3)nc12 | 18
COc1ccc(C2=C(c3cccc(OC)c3)C(=O)c3ccc(C)nc3C2=O)cc1 | 93.8
C1CCN(c2nc(N3CCCCC3)nc(N3CCOCC3)n2)CC1 | 92.1
COc1ccc(C2c3ccc4ccccc4c3Oc3ncn(CCCn4ccnc4)c(=N)c32)cc1OC (stereo not given) | 52.6

Which growth value belongs to Cc1nc2ccccc2c(/C=C/c2ccc(F)cc2)c1C(N)=O ?
134

Do the same for CCCCC1COc2cccc3c2N1C=C/C3=C\C(=O)N(C)c1ccccc1 (stereo not given) please
108

Do the same for O=C(NC1C(O)OC(CO)C(O)C1O)NS(=O)(=O)c1ccc(Cl)cc1 (stereo not given) please
110

Do the same for COc1cccc(/C=C/C(=O)c2c(C)nc3ccccc3c2/C=C/c2ccccc2)c1OC please
61.6

Do the same for COc1ccccc1N1CCN(C(CNS(=O)(=O)c2ccc(Cl)cc2)c2cccnc2)CC1 (stereo not given) please
111

Do the same for COc1nccc2cc3c(=O)n4c(cc5ccccc54)c(=O)n3c12 please
131
